The reported measurements were obtained from the supplement of paper PMC10567573.

B1: WEE1 (parent)
chain: FLGSSFSPVRCGGPGDASPRGCGA

Variants of: B1
assayExplanation: protein stability index of a GFP-peptide fusion (GPS, HEK-293T) (PSI 1-6); higher = more stable;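 further: lentivirally expressed fusions sorted by FACS into six bins by GFP to DsRed ratio, PSI derived from sequencing read proportions per bin multiplied by bin number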
conditionInfo: c terminus: a fixed tail appended
Reported protein stability index values for a set of variants
measuredQuantity: protein stability index

> print(dat)
    mutationlist         measuredquantity   val
 1          S18G  protein stability index  1.98
 2          C11V  protein stability index  1.95
 3          R20N  protein stability index     2
 4          R10V  protein stability index     2
 5          G15S  protein stability index  2.02
 6          A17E  protein stability index  1.95
 7          G21I  protein stability index  1.97
 8          A24T  protein stability index  2.01
 9          G21R  protein stability index  1.96
10          P19C  protein stability index  1.98
